The entries below are paired with their reported Kd.
biological target: T1, SARS-CoV-2 S1 (SARS-CoV-2, UniProt P0DTC2 16-685); assay: SPR
T1 construct: range 16-685
I only need the number, in nM, no unit after it.

6-63 (Fc fusion) EVQLVESGGGLVQPGGSLRLSCAASGQTFNMGWFRQAPGKEREFVAAIGSGGSTSYADSVKGRFTISADNSKNTAYLQMNSLKPEDTAVYYCWRLGNDYFDYWGQGTLVTVSS = 46
6-3 (Fc fusion) EVQLVESGGGLVQPGGSLRLSCAASGFTFSPSWMGWFRQAPGKEREFVATINEYGGRNYADSVKGRFTISADNSKNTAYLQMNSLKPEDTAVYYCARVDRDFDYWGQGTLVTVSS = 32
2-2 (antibody, V domains shown) VH: EVQLLESGGGLVQPGGSLRLSCAASGFTFSRHAMNWVRQAPGKGLEWVSGISGSGDETYYADSVKGRFTISRDNSKNTLYLQMNSLRAEDTAVYYCARDLPASYYDSSGYYWHNGMDVWGQGTLVTVSS VL: DIQMTQSPSSLSASVGDRVTITCRASQTINTYLNWYQQKPGKAPKLLIYSASTLQSGVPSRFSGSGSGTDFTLTISSLQPEDFATYYCQQSYSTFTFGQGTKVEIK = 21

Turning to the following binder.
## Input Value lookup for Kd; key = 5-1 (Fc fusion) EVQLVESGGGLVQPGGSLRLSCAASGGTFSSIGMGWFRQAPGKEREFVAAISWDGGATAYADSVKGRFTISADNSKNTAYLQMNSLKPEDTAVYYCAKEDVGKPFDWGQGTLVTVSS
## Output 6.6
